The reported numbers originate from ChEMBL document CHEMBL1147406.

# measured target: Prostaglandin G/H synthase 1 (Ovis aries)
# assay procedure: Inhibitory activity against prostaglandin G/H synthase 1 from ram seminal vesicles at 100 uM concentration
property measured: inhibition (%)
Record the value in %, omitting the unit from your answer.

>  <compound>
CS(=O)(=O)c1ccc(-c2cc(C(F)(F)F)nn2-c2ccc(S(N)(=O)=O)c(CO)c2)cc1

>  <measured target>
Prostaglandin G/H synthase 1 (Ovis aries)

>  <inhibition / %>
68

$$$$

Ask | // returns reported inhibition for input "COc1ccc(-c2cc(C(F)(F)F)nn2-c2ccc(S(C)(=O)=O)c(C=O)c2)cc1"
Reply | 92

Ask | Moving on to the next compound: "COc1ccc(-c2cc(C(F)(F)F)nn2-c2ccc3c(c2)CNS3(=O)=O)cc1"
Reply | 85

Ask | Moving on to the next compound: "CC(C)Cc1ccc(-c2cc(C(F)(F)F)nn2-c2ccc(S(N)(=O)=O)c(CO)c2)cc1"
Reply | 4

Ask | Moving on to the next compound: CSc1ccc(-c2cc(C(F)(F)F)nn2-c2ccc(S(N)(=O)=O)c(C(C)O)c2)cc1 (centres undefined)
Reply | 6

Ask | Moving on to the next compound: "CSc1ccc(-c2cc(C(F)(F)F)nn2-c2ccc(S(C)(=O)=O)c(CO)c2)cc1"
Reply | 0

----------
Quick list: inhibition per entry.
# measured target: Prostaglandin G/H synthase 1 (Ovis aries) (UniProt P05979)
# Sequence (P05979 whole entry): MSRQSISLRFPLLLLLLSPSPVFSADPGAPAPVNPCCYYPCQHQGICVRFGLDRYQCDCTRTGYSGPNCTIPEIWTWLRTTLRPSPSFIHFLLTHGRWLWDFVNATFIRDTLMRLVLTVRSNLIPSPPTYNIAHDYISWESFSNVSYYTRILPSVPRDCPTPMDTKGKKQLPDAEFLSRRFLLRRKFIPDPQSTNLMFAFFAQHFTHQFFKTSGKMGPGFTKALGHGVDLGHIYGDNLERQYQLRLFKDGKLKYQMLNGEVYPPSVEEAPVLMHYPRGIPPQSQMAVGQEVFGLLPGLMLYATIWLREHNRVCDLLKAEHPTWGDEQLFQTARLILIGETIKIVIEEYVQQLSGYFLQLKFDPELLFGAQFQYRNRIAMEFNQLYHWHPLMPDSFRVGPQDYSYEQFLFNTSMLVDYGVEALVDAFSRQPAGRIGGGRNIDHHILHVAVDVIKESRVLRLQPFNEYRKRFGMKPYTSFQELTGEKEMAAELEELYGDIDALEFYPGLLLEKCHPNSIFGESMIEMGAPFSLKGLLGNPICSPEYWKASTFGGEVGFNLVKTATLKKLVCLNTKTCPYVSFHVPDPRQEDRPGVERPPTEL
# assay procedure: Inhibitory activity against prostaglandin G/H synthase 1 from ram seminal vesicles at 100 uM concentration
Record the value in %, omitting the unit from your answer.

Answered examples (2):
>  <chem smiles>
COc1ccc(-c2cc(C(F)(F)F)nn2-c2ccc3c(c2)COS3(=O)=O)cc1

>  <units symbol>
%

>  <inhibition>
92

$$$$
>  <chem smiles>
Cc1ccc(-c2cc(C(F)(F)F)nn2-c2ccc3c(c2)CCS3(=O)=O)cc1

>  <units symbol>
%

>  <inhibition>
90

$$$$

Lab note: next molecule to report on.
Ask | // returns reported inhibition for input "COc1ccc(-c2cc(C(F)(F)F)nn2-c2ccc3c(c2)CCS3(=O)=O)cc1"
Reply | 86
